Would you mind telling me the reported log10 IC50 of each entry?
- Test system: Influenza virus A/WSN/33 (H1N1)
- Run description: microbe, parasite or virus in culture
- Format: cell-based
- Run parameters: 72 h; viral strain: Influenza virus A/WSN/33 (H1N1); Cell: MDBK; […]; 3 days; read-out: IC50
A difference of one corresponds to tenfold IC50; all values are log10 with IC50 in µg/mL.

Take each entry in turn and give its log10 IC50.
1. C[C@H]1CC[C@H]2C(C)(C)[C@H](O)CC[C@]23Oc2c(c(O)cc4c2C(=O)NC4=O)C[C@]13C
2. CC(=O)O[C@@H]1C(=NO)C[C@@]23Oc4c(c(O)cc5c4CNC5=O)C[C@]2(C)[C@@H](C)CC[C@H]3C1(C)C [Compound (53b)]
3. COC1NC(=O)c2cc(O)c3c(c21)O[C@@]12CC[C@H](O)C(C)(C)[C@@H]1CC[C@H](C)[C@@]2(C)C3 (stereo partly shown) [Compound (30b)]
4. C[C@H]1CC[C@H]2C(C)(C)[C@@H](N)CC[C@]23Oc2c(c(O)cc4c2CNC4=O)C[C@]13C [Compound (47a)]
5. C[C@H]1CC[C@H]2C(C)(C)C(=NN3CCOCC3)CC[C@]23Oc2c(c(O)cc4c2CNC4=O)C[C@]13C [Compound (51f)]

1. -2.10
2. -1.10
3. -1.40
4. -1.70
5. -1.30

Param item: CON=C1CC[C@@]23Oc4c(c(O)cc5c4CNC5=O)C[C@]2(C)[C@@H](C)CC[C@H]3C1(C)C [Compound (51b)] ; param system: Influenza virus A/WSN/33 (H1N1); output log10 IC50: -2.52

---

- Tested on: Influenza virus A/WSN/33 (H1N1)
- Run description: microbe, parasite or virus in culture
- Format: cell-based
- Run parameters: 72 h; viral strain: Influenza virus A/WSN/33 (H1N1); Cell: MDBK; […]; 3 days; read-out: IC50
Readout kind: IC50

Param item: C[C@H]1CC[C@H]2C(C)(C)[C@H](OS(C)(=O)=O)CC[C@]23Oc2c(c(O)cc4c2CNC4=O)C[C@]13C [Compound (13b)] ; param system: Influenza virus A/WSN/33 (H1N1); output IC50: 0.02 µg/mL

Param item: C[C@H]1CC[C@H]2C(C)(C)[C@@H](O)[C@@H](OC(=O)c3ccccc3)C[C@]23Oc2c(c(O)cc4c2CNC4=O)C[C@]13C [Compound (50c)] ; param system: Influenza virus A/WSN/33 (H1N1); output IC50: 0.05 µg/mL

Param item: `C[C@H]1CC[C@H]2C(C)(C)CCC[C@]23Oc2c(c(O)cc4c2CNC4=O)C[C@]13C` ; param system: Influenza virus A/WSN/33 (H1N1); output IC50: 0.002 µg/mL

Here's the next entry for you.
Param item: C[C@H]1CC[C@H]2C(C)(C)[C@H](OS(=O)(=O)c3ccccc3)CC[C@]23Oc2c(c(O)cc4c2CNC4=O)C[C@]13C [Compound (13d)] ; param system: Influenza virus A/WSN/33 (H1N1); output IC50: 0.02 to 0.06 µg/mL

---

- Tested on: Influenza virus A/WSN/33 (H1N1)
- Run description: microbe, parasite or virus in culture
- Type: cell-based
- Run parameters: 72 h; viral strain: Influenza virus A/WSN/33 (H1N1); Cell: MDBK; […]; 3 days; read-out: IC50
Readout kind: IC50 (µg/mL)
One number for each entry, in µg/mL.

Looking up C[C@H]1CC[C@H]2C(C)(C)[C@@H](O)CC[C@]23Oc2c(c(O)cc4c2C(=O)N(C)C4=O)C[C@]13C [Compound (32b)] , I found its IC50 recorded as 0.04

Looking up C[C@H]1NC(=O)c2cc(O)c3c(c21)O[C@@]12CC[C@H](O)C(C)(C)[C@@H]1CC[C@H](C)[C@@]2(C)C3 [Compound (67b)] , I found its IC50 recorded as 0.032

Take each entry in turn and give its IC50.
1. C[C@H]1CC[C@H]2C(C)(C)[C@@H](NC(=O)Nc3ccccc3)CC[C@]23Oc2c(c(O)cc4c2CNC4=O)C[C@]13C [Compound (47e)]
2. C[C@H]1CC[C@H]2C(C)(C)[C@@H](O)CC[C@]23Oc2c(c(O)cc4c2CN(S(C)(=O)=O)C4=O)C[C@]13C [Compound (28e)]
3. CC(=O)N1Cc2c(cc(O)c3c2O[C@@]24CC[C@H](O)C(C)(C)[C@@H]2CC[C@H](C)[C@@]4(C)C3)C1=O [Compound (28f)]
4. C[C@@H]1NC(=O)c2cc(O)c3c(c21)O[C@@]12CC[C@H](O)C(C)(C)[C@@H]1CC[C@H](C)[C@@]2(C)C3 [Compound (67a)]

1. 0.025
2. 0.03
3. 0.02
4. 0.016

Take each entry in turn and give its IC50.
1. C[C@H]1CC[C@H]2C(C)(C)[C@@H](O)CC[C@]23Oc2c(c(O)cc4c2C(O)NC4=O)C[C@]13C (stereo partly shown) [Compound (30a)]
2. CCCCN1Cc2c(cc(O)c3c2O[C@@]24CC[C@H](O)C(C)(C)[C@@H]2CC[C@H](C)[C@@]4(C)C3)C1=O [Compound (28b)]
3. C[C@H]1CC[C@H]2C(C)(C)[C@@H](O)CC[C@]23Oc2c(c(O)cc4c2CN(C)C4=O)C[C@]13C [Compound (28a)]

0.002
0.02
0.02

Take each entry in turn and give its IC50.
1. CC(=O)N[C@H]1CC[C@@]23Oc4c(c(O)cc5c4CNC5=O)C[C@]2(C)[C@@H](C)CC[C@H]3C1(C)C [Compound (47b)]
2. C[C@H]1CC[C@H]2C(C)(C)[C@@H](NS(=O)(=O)c3ccccc3)CC[C@]23Oc2c(c(O)cc4c2CNC4=O)C[C@]13C [Compound (47d)]
3. CCCOC1NC(=O)c2cc(O)c3c(c21)O[C@@]12CC[C@H](O)C(C)(C)[C@@H]1CC[C@H](C)[C@@]2(C)C3 (stereo partly shown) [Compound (30c)]

0.02
0.003
0.04
